Property: growth at 100 µM; scope: individual compounds
# System: OVCAR-4
# assayName: Cytotoxicity against human OVCAR4 cells assessed as cell growth at 100 uM after 48 hrs by sulforhodamine B assay relative to control
# Format: functional
# testContext: OVCAR-4, 48 h, read-out: Activity

>  <molecularString>
COc1cc(-c2cc(/C=C/C(=O)c3ccc4c(c3)OCO4)[nH]n2)cc(OC)c1OC

>  <unitString>
%

>  <growth at 100 µM>
3

$$$$
>  <molecularString>
COc1ccc(C(=O)/C=C/c2cc(-c3cc(OC)c(OC)c(OC)c3)n[nH]2)cc1OC

>  <unitString>
%

>  <growth at 100 µM>
-82

$$$$
>  <molecularString>
COc1ccc(-c2cc(/C=C/C(=O)c3ccc(N)cc3)[nH]n2)cc1

>  <unitString>
%

>  <growth at 100 µM>
-68

$$$$
>  <molecularString>
COc1ccc(-c2cc(/C=C/C(=O)c3ccc(N)cc3)[nH]n2)cc1OC

>  <unitString>
%

>  <growth at 100 µM>
-98

$$$$
>  <molecularString>
COc1cc(C(=O)/C=C/c2cc(-c3ccc4c(c3)OCO4)n[nH]2)cc(OC)c1OC

>  <unitString>
%

>  <growth at 100 µM>
-100

$$$$
